# Measurement Description: Clearance in Beagle dog at 0.5 mg/kg, iv measured up to 24 hrs by LC-MS/MS analysis
# Type: ADME, organism-based, Canis lupus familiaris
# Conditions: in vivo
Assay Endpoint: clearance (mL/min/kg)

[[record]]
sample_smiles = "Cc1cccnc1-c1ccc(-c2n[nH]c3ncc(-c4ccc5c(c4)CC[C@@H](N4C6COCC4C6)CC5)cc23)cc1"
unit = "mL/min/kg"
reported_result = 25

[[record]]
sample_smiles = "Cc1cccnc1-c1ccc(-c2n[nH]c3ncc(-c4ccc5c(c4)CC[C@@H](N4C6COCC4C6)CC5)cc23)nc1"
unit = "mL/min/kg"
reported_result = 25

[[record]]
sample_smiles = "Cc1cccnc1-c1ccc(-c2c[nH]c3ncc(-c4ccc5c(c4)CC[C@@H](N4C6COCC4C6)CC5)cc23)cc1"
unit = "mL/min/kg"
reported_result = 11.8


// data source = ChEMBL document CHEMBL6134930
